The values you see were collected from a melting point compilation (Tetko et al.; mined from patent text by program, amines drawn as free bases though some values may be those of a salt).

recorded.metric: melting point

>  <compound>
O=[N+]([O-])c1ccc2c(c1)C(c1ccccc1)=NCc1cc(CO)nn1-2

>  <data.value>
192 to 194 °C

$$$$
>  <compound>
CCNC(=O)Oc1cnn(C(C)(C)C)c1

>  <data.value>
77 °C

$$$$
>  <compound>
O=C1CCC2=C1C(c1ccc(F)c(F)c1)C1=C(CCS1)N2 (configuration not stated)

>  <data.value>
> 260 °C

$$$$
>  <compound>
O=C1N(Cc2nc3ncccc3o2)c2ccccc2C12COc1cc3c(cc12)OCO3 (configuration not stated)

>  <data.value>
202 to 204 °C

$$$$
>  <compound>
Cc1cc(CCC(=O)OCC(CO)(COC(=O)CCc2cc(C)c(O)c(C(C)(C)C)c2)COC(=O)CCc2cc(C)c(O)c(C(C)(C)C)c2)cc(C(C)(C)C)c1O

>  <data.value>
40 to 50 °C

$$$$
>  <compound>
CN1CCN(NC(=O)Nc2cccc3c2C(=O)c2c-3n[nH]c2-c2ccc(N3CCN(C)CC3)cc2)CC1

>  <data.value>
293 °C

$$$$
>  <compound>
CC(C)(C)OC(=O)N1CCN(c2cccc3c(Sc4ccccc4)c[nH]c23)CC1

>  <data.value>
165 to 166 °C

$$$$
>  <compound>
Cn1ncc2c3[nH]ncc3ccc21

>  <data.value>
180 to 184 °C

$$$$
>  <compound>
N#CCC(O)(c1ccc(Cl)cc1)c1ccc(-c2ccc(Cl)cc2)cc1 (configuration not stated)

>  <data.value>
123 °C

$$$$
>  <compound>
Cc1ccc(OCCC(C(=O)O)c2ccccc2)c2ccccc12 (configuration not stated)

>  <data.value>
130 to 132 °C

$$$$
>  <compound>
COc1ccc(C(=NO)c2cccc(F)c2F)c(O)c1Cl

>  <data.value>
198 to 199 °C

$$$$
>  <compound>
COc1ccc(C2=NN(C)C(=O)CC2)cc1

>  <data.value>
133 to 135 °C

$$$$
>  <compound>
CCOC(=O)C1C=CC(c2ccccc2)n2c(=O)n(CO)c(=O)n21 (configuration not stated)

>  <data.value>
129 to 133 °C

$$$$
>  <compound>
N#CCCCCCC(=NOCCNC(c1ccccc1)(c1ccccc1)c1ccccc1)c1ccc(Cl)c(Cl)c1

>  <data.value>
131 to 132 °C

$$$$
>  <compound>
O=CN1CCN(O)CC1

>  <data.value>
118 to 124 °C

$$$$
>  <compound>
CCOC(=O)CCCN(C(=O)c1ccc(F)cc1)c1ccccc1-c1ccccc1

>  <data.value>
83 to 84 °C

$$$$
>  <compound>
COc1ccccc1N1CCN(CC(O)CCl)CC1 (configuration not stated)

>  <data.value>
96 to 98 °C

$$$$

====

>  <molecule>
CN(C)c1ccc(NC(=O)N(C[C@H]2CCC[C@H](CN(C(=O)Nc3ccc(N(C)C)cc3)C3CCCCC3)C2)C2CCCCC2)cc1 (relative stereo)

>  <melting point>
145 to 146 °C

$$$$
>  <molecule>
O=C(Nc1ccc(-n2nc(C(F)(F)F)cc2C(F)(F)F)cc1)c1cccnc1Cl

>  <melting point>
145 to 147 °C

$$$$
>  <molecule>
COC(=O)On1c(C(=O)OC)cc2c(C)ccc(C)c21

>  <melting point>
75 to 80 °C

$$$$
>  <molecule>
NC(=O)c1cccc(CCN2CC=C(c3c[nH]c(-c4ccc(F)cc4)c3-c3ccncc3)CC2)c1

>  <melting point>
185 to 188 °C

$$$$
>  <molecule>
CCOc1cc(CCNC(=O)Cn2c(C#N)ccc2-c2ccc3c(c2)C(C)(C)OC(=O)N3)ccc1OC

>  <melting point>
160 to 162 °C

$$$$
>  <molecule>
CN1CCN(Cc2c(CO)c(Cl)nc3cc4c(cc23)OCCO4)CC1

>  <melting point>
178 to 180 °C

$$$$
>  <molecule>
COc1cc(NC(=O)/C=C/c2ccc(C(C)(C)C)cc2)ccc1O

>  <melting point>
203 to 204 °C

$$$$
>  <molecule>
COC(=O)C(CC(C)C)NC(=O)C(CC(=O)c1ccccc1)Cc1ccccc1 (stereo not drawn)

>  <melting point>
81 to 83 °C

$$$$
>  <molecule>
CCCCCCCCCCCCCCOc1cccc(CC(=O)OC)c1

>  <melting point>
31 to 33 °C

$$$$
>  <molecule>
O=C1C(=CN2CCCC2)c2ccccc2N1c1cccc(Cl)c1

>  <melting point>
108 to 112 °C

$$$$
>  <molecule>
CC(C)(C)OC(=O)N1CCC(Oc2ccccc2C(C)(C)C)C1 (stereo not drawn)

>  <melting point>
81 to 82 °C

$$$$
>  <molecule>
Cc1noc2cc(F)c(-n3c(=O)cc(C(F)(F)F)[nH]c3=O)cc12

>  <melting point>
235 to 237 °C

$$$$
>  <molecule>
O=C(NCc1ccc(Cl)cc1)c1ccc2cnccc2n1

>  <melting point>
110 to 111 °C

$$$$

====

>  <cpd.smiles>
CCCCCCC#Cc1csc(C=O)c1

>  <melting point>
2 °C

$$$$
>  <cpd.smiles>
NNc1nc(N)c2ncn(COCCO)c2n1

>  <melting point>
220 to 222 °C

$$$$
>  <cpd.smiles>
FC(F)(F)c1ccc2sc(CCl)nc2c1

>  <melting point>
52 °C

$$$$
>  <cpd.smiles>
N#CN=C1SCCN1Cc1c(Cl)ccc(C(=O)O)c1Cl

>  <melting point>
208 °C

$$$$
>  <cpd.smiles>
COC(=O)c1ccc(Cl)cc1NC(=O)CSc1nc2ccccc2s1

>  <melting point>
117 to 120 °C

$$$$
>  <cpd.smiles>
CCc1noc(NS(=O)(=O)c2ccccc2)c1Br

>  <melting point>
90 to 93 °C

$$$$
>  <cpd.smiles>
CCCCNc1nc(C)c(C(=O)c2ccc(N)c([N+](=O)[O-])c2)s1

>  <melting point>
200 to 205 °C

$$$$
>  <cpd.smiles>
CCCCC[C@@H](CNC(=O)Nc1c(N(C)C)ncnc1N(C)C)c1cccc2c1OCO2

>  <melting point>
151 to 152 °C

$$$$
>  <cpd.smiles>
CSc1nc(C)nc(SC)c1NC(=O)CCCCCSc1nc2ccccc2o1

>  <melting point>
148 to 151 °C

$$$$
>  <cpd.smiles>
C#CCN(Cc1cc2c(=O)n(C)c(CN(CC)CC)nc2cc1Cl)c1ccc(C(=O)OC(C)(C)C)cc1

>  <melting point>
112 to 113 °C

$$$$

====

A collection of compounds and their measured melting point

>  <compound>
CCOC(=O)Cn1cc(C(=O)NCCN(C)C)c2nc3c(C)cccc3cc2c1=O

>  <melting point>
214 to 215 °C

$$$$
>  <compound>
CC(C)(C)CC(C)(C)c1cc(N=Nc2ccc(C(F)(F)F)cc2[N+](=O)[O-])c(O)c(C(C)(C)c2ccccc2)c1

>  <melting point>
101 to 105 °C

$$$$
>  <compound>
COc1ccc(-c2nc3c(C(N)=O)cccc3n2C)cc1

>  <melting point>
289 to 292 °C

$$$$
>  <compound>
CSC(C(=O)N1CCOCC1)c1cccc(C(=O)c2ccccc2)c1N (stereo unspecified)

>  <melting point>
119 to 121 °C

$$$$
>  <compound>
COc1cc(Oc2cccc(C(F)(F)F)c2)nc(C(=O)NO)c1

>  <melting point>
120 to 122 °C

$$$$
>  <compound>
COc1ccc(-c2cc(CCCN3CCN(C)CC3)c(=O)n(Cc3ccc(F)cc3)n2)cc1F

>  <melting point>
108 to 109 °C

$$$$
>  <compound>
COCCOCCOc1ccc(/C=C/C(=O)O)c(Oc2ncc(C(F)(F)F)cc2Cl)c1

>  <melting point>
134 °C

$$$$
>  <compound>
CCCCOc1ncc(C(C)=O)cc1-c1nn2c(CC)nc(CN3CCOCC3)c2c(=O)[nH]1

>  <melting point>
145 to 149 °C

$$$$
>  <compound>
Cc1ccnc(C(c2cc(F)ccc2F)S(=O)(=O)c2ccc(Cl)cc2)c1 (stereo unspecified)

>  <melting point>
116 to 117 °C

$$$$
>  <compound>
CCCc1nc2c(N)nc3cc(-c4ccccc4)ccc3c2n1CCCC(C)N(OC)C(=O)NC(C)C (stereo unspecified)

>  <melting point>
101 to 103 °C

$$$$
>  <compound>
O=C1c2ccccc2C(=O)N1CC(=O)N1c2ccccc2N(Cc2ccc(Cl)cc2)C(=O)[C@H]2CCC[C@H]21 (relative stereo)

>  <melting point>
205 to 206 °C

$$$$
>  <compound>
CCNc1cc(C)nn1-c1c(Cl)cc(C(F)(F)F)cc1Cl

>  <melting point>
74 to 75 °C

$$$$
>  <compound>
CCOC=Nc1c(C(=O)OCC)cnn1C

>  <melting point>
32 to 34 °C

$$$$
>  <compound>
Cc1c(C(=O)Nc2ccc(N3CCC(N4CCOCC4)CC3)c(C#N)c2)cnn1-c1ccc(Cl)c(Cl)c1

>  <melting point>
242 °C

$$$$
>  <compound>
COc1ccc2nccc(CCC[C@@H]3CCN(CCCc4cccs4)C[C@@H]3C(=O)O)c2c1

>  <melting point>
60 °C

$$$$
>  <compound>
COc1cc(I)c(C(=O)Cl)cc1OC

>  <melting point>
151 to 154 °C

$$$$
